Provenance of the data: the kinase profiling compilation of Christmann-Franck et al. (2016)

molecular target: PRKCD (human) (UniProt Q05655); test: KINOMEscan competition binding; settings: compound 10.0 µM
Sequence (Q05655 whole entry, looked up): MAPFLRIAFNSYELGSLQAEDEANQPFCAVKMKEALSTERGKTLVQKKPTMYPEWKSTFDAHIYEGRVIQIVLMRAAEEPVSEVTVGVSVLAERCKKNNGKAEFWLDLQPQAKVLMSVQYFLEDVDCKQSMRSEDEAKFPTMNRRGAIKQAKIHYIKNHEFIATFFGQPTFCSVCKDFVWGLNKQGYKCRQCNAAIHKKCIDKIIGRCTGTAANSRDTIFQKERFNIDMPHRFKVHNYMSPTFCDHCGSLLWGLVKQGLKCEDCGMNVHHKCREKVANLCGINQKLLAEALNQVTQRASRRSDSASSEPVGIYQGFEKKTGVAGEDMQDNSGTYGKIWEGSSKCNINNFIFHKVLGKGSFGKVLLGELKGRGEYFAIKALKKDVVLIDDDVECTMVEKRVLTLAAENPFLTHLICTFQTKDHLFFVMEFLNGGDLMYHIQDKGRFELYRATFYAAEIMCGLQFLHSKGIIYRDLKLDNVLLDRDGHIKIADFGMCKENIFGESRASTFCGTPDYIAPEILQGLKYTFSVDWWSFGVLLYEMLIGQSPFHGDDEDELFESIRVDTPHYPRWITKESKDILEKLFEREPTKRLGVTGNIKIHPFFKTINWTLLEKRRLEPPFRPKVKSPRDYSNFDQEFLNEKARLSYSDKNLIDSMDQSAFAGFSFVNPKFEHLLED
quantity: kinase still bound, per cent of control

[[record]]
compound = "CCCS(=O)(=O)Nc1ccc(F)c(C(=O)c2c[nH]c3ncc(Cl)cc23)c1F"
study_target = "PRKCD (human) (UniProt Q05655)"
quantity = "kinase still bound, per cent of control"
recorded_result = "100%"

[[record]]
compound = "CCOc1cc(N2CCC(O)CC2)ccc1Nc1ncc2c(n1)N(C)c1ccccc1C(=O)N2C"
study_target = "PRKCD (human) (UniProt Q05655)"
quantity = "kinase still bound, per cent of control"
recorded_result = "100%"

[[record]]
compound = "O=c1[nH]c2ccccc2n1C1CCN(Cc2ccc(-c3nc4cc5[nH]cnc5cc4nc3-c3ccccc3)cc2)CC1"
study_target = "PRKCD (human) (UniProt Q05655)"
quantity = "kinase still bound, per cent of control"
recorded_result = "81%"

[[record]]
compound = "COc1cc(C)c(Sc2cnc(NC(=O)c3ccc(CNC(C)C(C)C)cc3)s2)cc1C(=O)N1CCN(C(C)=O)CC1 (stereo not given)"
study_target = "PRKCD (human) (UniProt Q05655)"
quantity = "kinase still bound, per cent of control"
recorded_result = "100%"

[[record]]
compound = "COc1cc2ncnc(Nc3cccc(Cl)c3)c2cc1OC"
study_target = "PRKCD (human) (UniProt Q05655)"
quantity = "kinase still bound, per cent of control"
recorded_result = "97%"


###

kinase still bound, per cent of control values for the compounds below.
biological target: MAP2K1 (human); experiment: KINOMEscan competition binding; conditions: compound 10.0 µM
quantity: kinase still bound, per cent of control (%)

[[record]]
compound = "CCc1nc(-c2cccc(C)c2)c(-c2ccnc(NC(=O)c3ccccc3)c2)s1"
quantity = "kinase still bound, per cent of control"
recorded_result = 86

[[record]]
compound = "COc1cc(C)c(Sc2cnc(NC(=O)c3ccc(CNC(C)C(C)C)cc3)s2)cc1C(=O)N1CCN(C(C)=O)CC1 (stereo not drawn)"
quantity = "kinase still bound, per cent of control"
recorded_result = 100

[[record]]
compound = "COc1cc(N2CCC(C(N)=O)CC2)ccc1Nc1nc(N)c(Cl)c(Nc2ccccc2S(=O)(=O)C(C)C)n1"
quantity = "kinase still bound, per cent of control"
recorded_result = 100

[[record]]
compound = "COc1cc2ncnc(Nc3cccc(Cl)c3)c2cc1OC"
quantity = "kinase still bound, per cent of control"
recorded_result = 25

[[record]]
compound = "C=CC(=O)Nc1ccc(C(=O)c2sc(Nc3ccc(N4CCN(C)CC4)cc3OC)nc2N)cc1"
quantity = "kinase still bound, per cent of control"
recorded_result = 100

[[record]]
compound = "CC1=C(C(=O)Nc2cc3cn[nH]c3cc2F)C(c2ccc(C(F)(F)F)cc2)CC(=O)N1 (stereo not drawn)"
quantity = "kinase still bound, per cent of control"
recorded_result = 73

[[record]]
compound = "CNC(=O)Nc1ccc(-c2nc(N3CC4CCC(C3)O4)c3cnn(C4CCC5(CC4)OCCO5)c3n2)cc1"
quantity = "kinase still bound, per cent of control"
recorded_result = 100

[[record]]
compound = "N#C/C(=C1/Nc2ccccc2S1)c1ccnc(NCCc2cccnc2)n1"
quantity = "kinase still bound, per cent of control"
recorded_result = 9.6


###

tested on: FLT3 (human), P36888 [D835Y]; assay: KINOMEscan competition binding; conditions: compound 10.0 µM
quantity: kinase still bound, per cent of control (%)

[[record]]
line_notation = "C=CC(=O)Nc1cc(NC(=O)c2ccc(C)c(NC(=O)c3ccno3)c2)cc(C(F)(F)F)c1"
study_target = "FLT3 (human), P36888 [D835Y]"
quantity = "kinase still bound, per cent of control"
units_label = "%"
recorded_result = 100

[[record]]
line_notation = "Cc1cn(-c2cc(C(=O)Nc3ccc(C)c(NC(=O)c4ccno4)c3)cc(C(F)(F)F)c2)cn1"
study_target = "FLT3 (human), P36888 [D835Y]"
quantity = "kinase still bound, per cent of control"
units_label = "%"
recorded_result = 100

[[record]]
line_notation = "COc1ccc(N(C(=O)Oc2c(C)cccc2C)c2ccnc(Nc3ccc(N4CCN(C)CC4)cc3)n2)c(OC)c1"
study_target = "FLT3 (human), P36888 [D835Y]"
quantity = "kinase still bound, per cent of control"
units_label = "%"
recorded_result = 5.2

[[record]]
line_notation = "CNC(=O)Nc1ccc(-c2nc(N3CC4CCC(C3)O4)c3cnn(C4CCC5(CC4)OCCO5)c3n2)cc1"
study_target = "FLT3 (human), P36888 [D835Y]"
quantity = "kinase still bound, per cent of control"
units_label = "%"
recorded_result = 99

[[record]]
line_notation = "COc1cc2c(Nc3ccc(NC(=O)c4ccccc4)cc3)ncnc2cc1OCCCN1CCOCC1"
study_target = "FLT3 (human), P36888 [D835Y]"
quantity = "kinase still bound, per cent of control"
units_label = "%"
recorded_result = 44

[[record]]
line_notation = "Cc1ccc(C(=O)Nc2cccc(C(F)(F)F)c2)cc1Nc1cncc(C(N)=O)c1"
study_target = "FLT3 (human), P36888 [D835Y]"
quantity = "kinase still bound, per cent of control"
units_label = "%"
recorded_result = 100

[[record]]
line_notation = "COc1cc2ncnc(Nc3cccc(Cl)c3)c2cc1OC"
study_target = "FLT3 (human), P36888 [D835Y]"
quantity = "kinase still bound, per cent of control"
units_label = "%"
recorded_result = 11

[[record]]
line_notation = "Cc1ccc(NC(=O)c2cccc(C(C)(C)C#N)c2)cc1Nc1ccc2ncn(C)c(=O)c2c1"
study_target = "FLT3 (human), P36888 [D835Y]"
quantity = "kinase still bound, per cent of control"
units_label = "%"
recorded_result = 100

[[record]]
line_notation = "CS(=O)(=O)N1CCN(Cc2cc3nc(-c4cccc5[nH]ncc45)nc(N4CCOCC4)c3s2)CC1"
study_target = "FLT3 (human), P36888 [D835Y]"
quantity = "kinase still bound, per cent of control"
units_label = "%"
recorded_result = 100

[[record]]
line_notation = "O=C(NC1CC1)c1cccc(-c2ccc3c(NC(=O)C4CC4)n[nH]c3c2)c1"
study_target = "FLT3 (human), P36888 [D835Y]"
quantity = "kinase still bound, per cent of control"
units_label = "%"
recorded_result = 15

[[record]]
line_notation = "COc1cc(N2CCC(C(N)=O)CC2)ccc1Nc1nc(N)c(Cl)c(Nc2ccccc2S(=O)(=O)C(C)C)n1"
study_target = "FLT3 (human), P36888 [D835Y]"
quantity = "kinase still bound, per cent of control"
units_label = "%"
recorded_result = 5.2

[[record]]
line_notation = "CCN1CCN(Cc2ccc(Nc3ncc4c(n3)N(C)c3ccccc3C(=O)N4C)cc2C(F)(F)F)CC1"
study_target = "FLT3 (human), P36888 [D835Y]"
quantity = "kinase still bound, per cent of control"
units_label = "%"
recorded_result = 3.5

[[record]]
line_notation = "COc1cc(N2CCN(C)CC2)ccc1Nc1ncc2c(n1)N(C)c1ccccc1C(=O)N2C"
study_target = "FLT3 (human), P36888 [D835Y]"
quantity = "kinase still bound, per cent of control"
units_label = "%"
recorded_result = 100

[[record]]
line_notation = "C=CC(=O)Nc1cccc(Nc2nc(N[C@H]3CC[C@H](N(C)C)CC3)nc3c2ncn3C(C)C)c1"
study_target = "FLT3 (human), P36888 [D835Y]"
quantity = "kinase still bound, per cent of control"
units_label = "%"
recorded_result = 0.85

[[record]]
line_notation = "COc1cc(N2CCN(C)CC2)ccc1Nc1nc(N)c(C(=O)c2c(Cl)cccc2Cl)s1"
study_target = "FLT3 (human), P36888 [D835Y]"
quantity = "kinase still bound, per cent of control"
units_label = "%"
recorded_result = 100

[[record]]
line_notation = "O=C(O)c1ccc(Nc2ncc3c(n2)-c2ccc(Cl)cc2C(c2c(F)cccc2F)=NC3)cc1"
study_target = "FLT3 (human), P36888 [D835Y]"
quantity = "kinase still bound, per cent of control"
units_label = "%"
recorded_result = 72

[[record]]
line_notation = "Cc1n[nH]c2ccc(-c3cncc(OC[C@@H](N)Cc4c[nH]c5ccccc45)c3)cc12"
study_target = "FLT3 (human), P36888 [D835Y]"
quantity = "kinase still bound, per cent of control"
units_label = "%"
recorded_result = 0.2

[[record]]
line_notation = "COc1cc2ncnc(-n3nc(-c4ccccn4)nc3N)c2cc1OC"
study_target = "FLT3 (human), P36888 [D835Y]"
quantity = "kinase still bound, per cent of control"
units_label = "%"
recorded_result = 3.4

[[record]]
line_notation = "C[C@@H](Oc1cc(-n2cnc3ccc(CN4CCN(C)CC4)cc32)sc1C(N)=O)c1ccccc1C(F)(F)F"
study_target = "FLT3 (human), P36888 [D835Y]"
quantity = "kinase still bound, per cent of control"
units_label = "%"
recorded_result = 21

[[record]]
line_notation = "CCN1CCN(Cc2ccc(NC(=O)c3ccc(C)c(/C=C/c4cnc5[nH]ccc5c4OC)c3)cc2C(F)(F)F)CC1"
study_target = "FLT3 (human), P36888 [D835Y]"
quantity = "kinase still bound, per cent of control"
units_label = "%"
recorded_result = 2.8

